Entries and their IC50 values follow.
Molecular target: human estrogen receptor α (hERα) (Homo sapiens, UniProt P03372)
Sequence (P03372 1-595): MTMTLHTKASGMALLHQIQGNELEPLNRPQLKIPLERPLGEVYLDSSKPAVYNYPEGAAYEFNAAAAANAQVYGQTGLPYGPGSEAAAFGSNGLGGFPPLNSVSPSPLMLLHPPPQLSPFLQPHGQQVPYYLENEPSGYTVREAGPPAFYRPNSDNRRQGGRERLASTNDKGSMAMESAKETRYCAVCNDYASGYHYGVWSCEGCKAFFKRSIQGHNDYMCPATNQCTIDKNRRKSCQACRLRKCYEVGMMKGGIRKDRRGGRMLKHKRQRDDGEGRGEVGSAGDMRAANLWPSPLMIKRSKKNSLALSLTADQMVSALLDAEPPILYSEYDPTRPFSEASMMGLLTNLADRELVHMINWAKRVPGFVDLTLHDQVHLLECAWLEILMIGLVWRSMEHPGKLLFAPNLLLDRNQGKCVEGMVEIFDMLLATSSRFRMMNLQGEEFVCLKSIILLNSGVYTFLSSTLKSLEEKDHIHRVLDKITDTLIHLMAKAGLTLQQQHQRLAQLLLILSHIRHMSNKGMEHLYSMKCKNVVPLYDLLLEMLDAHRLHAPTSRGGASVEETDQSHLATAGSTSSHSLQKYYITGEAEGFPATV
Assay: antagonistic activity in CHO cells co-transfected with hERα, rat oxytocin promoter and luciferase reporter gene
Assay type: cell-based
Conditions: antagonism of 17β-estradiol-induced transactivation, CHO-hERα-RO-LUC; read-out: ERα pIC50 (converted)
Don't forget the unit after the number, please.

The following molecules have reported results that may help.
CCCN1CC(Oc2ccc(-c3c(-c4ccccc4C)noc3-c3ccc(O)cc3)cc2)C1 [compound 6j, 2,2,2-trifluoroacetate] | 0.398 nM
Cl.O=C(c1ccc(OC2CN(CC3CCOC3)C2)cc1)c1c(-c2ccc(O)cc2)sc2cc(O)ccc12 (stereo not drawn) [compound 7o, hydrochloride] | 5.01 nM

// switching to the query molecule
Ask: Given O=C(O)C(F)(F)F.O=C(c1ccc(OC2CN(CCCF)C2)cc1)c1c(-c2ccc(O)cc2)sc2cc(O)ccc12 [compound 7j, 2,2,2-trifluoroacetate] , state its recorded IC50.
Reply: 2.51 nM

====

Target: human estrogen receptor α (hERα) (Homo sapiens, UniProt P03372)
Sequence (P03372 1-595): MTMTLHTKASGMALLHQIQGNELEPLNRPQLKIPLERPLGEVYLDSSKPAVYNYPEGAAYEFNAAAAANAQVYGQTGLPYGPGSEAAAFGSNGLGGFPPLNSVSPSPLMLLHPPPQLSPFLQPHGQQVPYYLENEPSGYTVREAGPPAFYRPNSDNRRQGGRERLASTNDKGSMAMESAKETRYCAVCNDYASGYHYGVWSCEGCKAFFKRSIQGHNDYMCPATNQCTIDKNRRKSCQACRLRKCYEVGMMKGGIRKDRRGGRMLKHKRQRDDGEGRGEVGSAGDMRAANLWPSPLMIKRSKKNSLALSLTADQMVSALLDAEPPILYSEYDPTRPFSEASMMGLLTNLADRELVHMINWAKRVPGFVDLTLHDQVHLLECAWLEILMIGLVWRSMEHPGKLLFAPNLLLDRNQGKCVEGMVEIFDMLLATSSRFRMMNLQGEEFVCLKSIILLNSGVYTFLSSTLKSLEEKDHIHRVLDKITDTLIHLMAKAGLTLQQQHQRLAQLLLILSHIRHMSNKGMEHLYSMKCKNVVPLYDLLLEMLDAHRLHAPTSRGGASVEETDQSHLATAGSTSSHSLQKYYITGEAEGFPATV
Test: antagonistic activity in CHO cells co-transfected with hERα, rat oxytocin promoter and luciferase reporter gene
Type: cell-based
Settings: antagonism of 17β-estradiol-induced transactivation, CHO-hERα-RO-LUC; read-out: ERα pIC50 (converted)
# if measured IC50 < 2 nM: class 1  # else: class 0

C=CCN1CC(Oc2ccc(-c3c(-c4ccc(O)cc4)sc4cc(O)ccc34)cc2)C1.O=C(O)C(F)(F)F [compound 7b, 2,2,2-trifluoroacetate] | class 1
CCCN1CC(Oc2ccc(C(=O)c3c(-c4ccccc4)noc3-c3ccc(O)cc3)cc2)C1.Cl [compound 7ai, hydrochloride] | class 0
CCCN1CC(Oc2ccc(Cc3c(-c4ccccc4)c(=O)oc4cc(OC)ccc34)cc2)C1 | class 0
CCCN1CC(Oc2ccc([C@H]3c4ccc(OC)cc4OC(C)(C)[C@@H]3c3ccccc3)cc2)C1.O=C(O)C(F)(F)F [compound 6o, 2,2,2-trifluoroacetate] | class 0
Cl.O=C(c1ccc(OC2CN(CC3CCC3)C2)cc1)c1c(-c2ccc(O)cc2)sc2cc(O)ccc12 [compound 7n, hydrochloride] | class 1

Ask: Is the reported IC50 for CCCN1CC(Oc2ccc(-c3c(-c4snnc4C)noc3-c3ccc(O)cc3)cc2)C1.Cl [compound 7ae, hydrochloride] strictly below 2 nM?
Reply: class 0

Ask: Please do the same for O=C(O)C(F)(F)F.O=C(c1ccc(OC2CN(C3CC3)C2)cc1)c1c(-c2ccc(O)cc2)sc2cc(O)ccc12 [compound 7i, 2,2,2-trifluoroacetate] as well.
Reply: class 0

Ask: Please do the same for CCCN1CC(Oc2ccc(-c3c(-c4ccc(O)cc4)sc4cc(O)ccc34)cc2)C1.O=C(O)C(F)(F)F [compound 6b, 2,2,2-trifluoroacetate] as well.
Reply: class 1

Ask: Please do the same for CCCN1CC(Oc2ccc(-c3c(-c4ccccc4Cl)noc3-c3ccc(O)cc3C)cc2)C1 [compound 6k, 2,2,2-trifluoroacetate] as well.
Reply: class 1

Ask: Please do the same for CCCN1CC(Oc2ccc(C(=O)c3c(-c4ccccc4Cl)noc3-c3cccc4[nH]ncc34)cc2)C1.O=C(O)C(F)(F)F [compound 7as, 2,2,2-trifluoroacetate] as well.
Reply: class 0

Ask: Please do the same for Cl.O=C(c1ccc(OC2CN(CCC(F)(F)F)C2)cc1)c1c(-c2ccc(O)cc2)sc2cc(O)ccc12 [compound 7p, hydrochloride] as well.
Reply: class 0

Ask: Please do the same for CCCN1CC(Oc2ccc(C(=O)c3c(-c4ncccc4C)noc3-c3ccc(O)cc3)cc2)C1.Cl [compound 7am, hydrochloride] as well.
Reply: class 0

====

Molecular target: human estrogen receptor α (hERα) (Homo sapiens)
Assay: antagonistic activity in CHO cells co-transfected with hERα, rat oxytocin promoter and luciferase reporter gene
Assay type: cell-based
Details: antagonism of 17β-estradiol-induced transactivation, CHO-hERα-RO-LUC; read-out: ERα pIC50 (converted)
Entries and their IC50 values follow.
Give the number; nM is assumed, so skip it.

The following molecules have reported results that may help.
C[C@]12C[C@H](c3ccc(OC4CN(CC5CC5)C4)cc3)C3c4ccc(O)cc4CC[C@H]3[C@@H]1CC[C@@H]2O (stereo partly shown) | 3.16
Cl.Oc1ccc(-c2onc(-c3ccccc3Cl)c2-c2ccc(OC3CN(CC4CCC4)C3)cc2)cc1 [compound 7z, hydrochloride] | 0.398
CCCN1CC(Oc2ccc(C(=O)c3c(-c4c(F)cccc4F)noc3-c3ccc(O)cc3)cc2)C1.Cl [compound 7ak, hydrochloride] | 3.16

Ask: Return IC50 measured with human estrogen receptor α (hERα) (Homo sapiens) given this molecule: CCCN1CC(Oc2ccc(C(=O)c3c(-c4ccc(O)c(C)c4)sc4cc(O)ccc34)cc2)C1.Cl [compound 7r, hydrochloride]
Reply: 2

====

Molecular target: estrogen receptor alpha (Homo sapiens)
Construct: endogenous in cells; host or cells: T47D human breast cancer cells (ATCC)
Sequence (P03372 1-595): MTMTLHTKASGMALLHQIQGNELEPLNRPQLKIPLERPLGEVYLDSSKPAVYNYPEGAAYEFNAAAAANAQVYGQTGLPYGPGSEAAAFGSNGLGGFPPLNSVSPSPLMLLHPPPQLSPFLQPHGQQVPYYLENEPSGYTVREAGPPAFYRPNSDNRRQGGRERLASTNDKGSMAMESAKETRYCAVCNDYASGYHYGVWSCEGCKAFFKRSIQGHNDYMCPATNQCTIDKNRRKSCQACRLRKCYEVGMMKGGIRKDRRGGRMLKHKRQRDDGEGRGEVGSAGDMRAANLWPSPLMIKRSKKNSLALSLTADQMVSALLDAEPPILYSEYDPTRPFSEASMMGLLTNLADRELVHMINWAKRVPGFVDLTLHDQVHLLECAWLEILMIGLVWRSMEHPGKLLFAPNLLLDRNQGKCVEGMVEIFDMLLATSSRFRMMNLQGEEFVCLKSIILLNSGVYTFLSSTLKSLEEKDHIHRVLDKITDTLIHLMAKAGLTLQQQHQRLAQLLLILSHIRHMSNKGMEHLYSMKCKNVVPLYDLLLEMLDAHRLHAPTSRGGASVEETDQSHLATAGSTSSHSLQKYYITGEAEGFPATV
Experiment: ERα downregulation assay in T47D breast cancer cells (ERα ELISA)
Format: cell-based
Settings: downregulation of ERα relative to fulvestrant (100%), 1E-5 M, 24 hours, negative = upregulation
Counter-ions that a name gives are not always drawn.
ASSAY ENDPOINT: DR (%)
Give the number; % is assumed, so skip it.

The following compounds have reported results that may help.
CCCN1CC(Oc2ccc(C(=O)c3c(-c4ccccc4Cl)noc3-c3ccc(O)cc3)cc2)C1.Cl | 81
CCCN1CC(Oc2ccc(C(=O)c3c(-c4ccccc4Cl)noc3-c3cc[nH]c3)cc2)C1.O=C(O)C(F)(F)F | 78
CCCN1CC(Oc2ccc(C(=O)c3c(-c4ccccc4Cl)noc3-c3cccc(O)c3)cc2)C1.Cl | 90
Cl.O=C(c1ccc(OC2CN(CC3CCC3)C2)cc1)c1c(-c2ccc(O)cc2)sc2cc(O)ccc12 | 77
CCCN1CC(Oc2ccc(C(=O)c3c(-c4ccc(O)cc4)sc4cc(O)ccc34)cc2F)C1.Cl | 78
CCCN1CC(Oc2ccc(-c3c(-c4c(C)cccc4Cl)noc3-c3ccc(O)cc3)cc2)C1.O=C(O)C(F)(F)F | 86

Ask: Given `O=C(O)C(F)(F)F.O=C(c1ccc(OC2CN(CCCF)C2)cc1)c1c(-c2ccc(O)cc2)sc2cc(O)ccc12` , state its recorded DR (%).
Reply: 98

Ask: Please do the same for `CCCN1CC(Oc2ccc(C(=O)c3c(-c4ccc(O)cc4)noc3-c3ccccc3Cl)cc2)C1` as well.
Reply: 62

Ask: Please do the same for CCCN1CC(Oc2ccc(C(O)c3c(-c4ccccc4Cl)noc3-c3ccc(O)cc3)cc2)C1 (centres unmarked) as well.
Reply: 84

Ask: Please do the same for `CCCN1CC(Oc2ccc(-c3c(-c4snnc4C)noc3-c3ccc(O)cc3)cc2)C1.Cl` as well.
Reply: 99

Ask: Please do the same for `CCCN1CC(Oc2ccc([C@H]3c4ccc(O)cc4OC(C)(C)[C@@H]3c3ccccc3)cc2)C1.O=C(O)C(F)(F)F` as well.
Reply: 58

Ask: Please do the same for CCCN1CC(Oc2ccc(C(=O)c3c(-c4ccccc4Cl)noc3-c3ccccc3)cc2)C1 [compound 7ao, hydrochloride] as well.
Reply: 80

Ask: Please do the same for `Cl.Oc1ccc(-c2onc(-c3ccccc3Cl)c2-c2ccc(OC3CN(CC4CCC4)C3)cc2)cc1` as well.
Reply: 58

Ask: Please do the same for `CCCN1CC(Oc2ccc(-c3c(-c4ccccc4Cl)noc3-c3ccc(O)cc3)cc2)C1` as well.
Reply: 57

Ask: Please do the same for `O=C(c1ccc(OC2CN(CCCF)C2)cc1)c1c(-c2ccccc2Cl)noc1-c1ccc(O)cc1` as well.
Reply: 94

Ask: Please do the same for CCCN1CC(Oc2ccc(C(=C(Cl)c3ccccc3)c3ccccc3)cc2)C1 (mixture of isomers) as well.
Reply: 63

Ask: Please do the same for `CCCN1CC(Oc2ccc([C@H]3c4ccc(OC)cc4OC(C)(C)[C@@H]3c3ccccc3)cc2)C1.O=C(O)C(F)(F)F` as well.
Reply: 75
